B1: TNXB (parent)
chain: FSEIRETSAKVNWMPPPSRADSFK

# Variants of: B1
# experiment description: protein stability index of a GFP-peptide fusion (GPS, HEK-293T) (PSI 1-6); higher = more stable;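 also: lentivirally expressed fusions sorted by FACS into six bins by GFP to DsRed ratio, PSI derived from sequencing read proportions per bin multiplied by bin number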
# test settings: c terminus: a fixed tail appended
// reported protein stability index for each item listed
Please reply with the number alone, leaving off any unit.

Worked examples follow.
variant string: F23D
observed measurement: 4.56

variant string: D21G
observed measurement: 3.52

variant string: R5I
observed measurement: 3.4

variant string: T7E
observed measurement: 3.88

variant string: S2M
observed measurement: 3.17

variant string: F1G
observed measurement: 4.22

variant string: M14S
observed measurement: 3.92

variant string: S2E
observed measurement: 3.98

variant string: S22M
observed measurement: 2.79

variant string: S22Q
observed measurement: 3.42

*Q* What does the record list as protein stability index for P17D ?
*A* 3.84

Origin of values: the supplement of paper PMC10567573
